# Measurement Target: T1, human histidine-rich glycoprotein (HRG), purified from human plasma (human, UniProt P04196 19-525)
# T1 construct: also called human purified HRG; human purified HRG protein
# T1 sequence: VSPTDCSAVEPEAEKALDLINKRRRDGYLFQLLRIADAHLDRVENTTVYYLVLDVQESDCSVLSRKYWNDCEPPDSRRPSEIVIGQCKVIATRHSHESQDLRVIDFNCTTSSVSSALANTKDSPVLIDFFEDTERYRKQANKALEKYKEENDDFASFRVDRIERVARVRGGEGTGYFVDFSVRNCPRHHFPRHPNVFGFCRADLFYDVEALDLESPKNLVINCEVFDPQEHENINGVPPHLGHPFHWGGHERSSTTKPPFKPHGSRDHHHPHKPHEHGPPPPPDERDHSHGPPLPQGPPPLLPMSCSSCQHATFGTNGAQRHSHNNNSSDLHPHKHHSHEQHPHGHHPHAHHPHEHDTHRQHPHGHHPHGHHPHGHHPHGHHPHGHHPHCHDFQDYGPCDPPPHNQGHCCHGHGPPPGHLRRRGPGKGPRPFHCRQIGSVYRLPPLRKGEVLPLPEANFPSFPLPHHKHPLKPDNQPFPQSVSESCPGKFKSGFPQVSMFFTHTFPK
# Experiment Notes: sandwich ELISA, HRG captured by solid phase 65-3A
# Method: The capture antibody solution was dispensed at 25 μL per well into 384-well Maxisorp plates (NUNC), and the plates were incubated at room temperature for 3 hours. […] The results regarding the evaluation of combinations chosen from 21 types of anti-HRG monoclonal antibodies are shown in Table 1. […] The combinations of antibodies which could construct a sandwich ELISA system having enough level of absorbance change were 86 sets evaluated as ++ or +++ in Table 1.
# absorbance at 450 nm (OD450) per entry

Return reported absorbance at 450 nm (OD450). Input binder: anti-HRG monoclonal antibody 50-6C-2A (antibody, V domains shown, Mouse hybridoma monoclonal) VH: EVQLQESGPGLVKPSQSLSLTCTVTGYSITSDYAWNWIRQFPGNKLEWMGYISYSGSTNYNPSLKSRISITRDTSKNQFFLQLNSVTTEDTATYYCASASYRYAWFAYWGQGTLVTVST VL: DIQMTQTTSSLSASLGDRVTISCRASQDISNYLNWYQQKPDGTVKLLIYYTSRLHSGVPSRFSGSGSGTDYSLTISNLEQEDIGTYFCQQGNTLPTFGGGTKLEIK
1 to 2 od

Write down absorbance at 450 nm (OD450) measured for item anti-HRG monoclonal antibody 67-8A-5F (antibody, V domains shown, Mouse hybridoma monoclonal) VH: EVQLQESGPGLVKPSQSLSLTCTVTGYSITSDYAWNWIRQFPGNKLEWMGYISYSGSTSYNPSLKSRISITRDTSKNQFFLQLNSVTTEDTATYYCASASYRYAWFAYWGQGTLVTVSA VL: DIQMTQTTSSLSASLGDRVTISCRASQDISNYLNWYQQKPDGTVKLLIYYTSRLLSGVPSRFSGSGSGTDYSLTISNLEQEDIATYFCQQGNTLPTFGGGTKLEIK
1 to 2 od

Return reported absorbance at 450 nm (OD450). Input binder: anti-HRG monoclonal antibody 75-2D (antibody, V domains shown, Mouse hybridoma monoclonal; also called clone No. 75-2D) VH: QVQLQQSGAELMKPGASVKISCKATGYTFSSYWIEWVKQRPGHGLEWIGEILPGSGRTNYNEKFKGKATFTADTSSNTAYMQLSSLTSEDSAVYYCARYSYFYYFDYWGQGTTLTVSS VL: DNVLTQSPAIMSASLGERVTMTCTASSSVSSSYLHWYQQKPGSSPKLWIYSTSNLASGVPARFSGSGSGTSYSLTISSMEAEDAATYYCHQYHRSPWTFGGGTKLEIK
≥ 3 od

Numbers sourced from patent US20250258178A1.
